// provenance: the Human Domainome abundance scans (Beltran et al. 2025)

Listed here are variants together with their documented abundance fitness.
B1: RNA-binding E3 ubiquitin-protein ligase MEX3C, residues 325 to 391; numbered along this chain, Q5U5Q3 (parent)
chain: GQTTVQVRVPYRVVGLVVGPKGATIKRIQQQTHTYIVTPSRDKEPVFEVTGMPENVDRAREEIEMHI

variants of: B1; assay: abundance fitness (aPCA) (normalised: wild type 0, dead -1); higher = more abundant; growth selection in yeast, the domain comes from the species named; details: Homo sapiens
Response field accepts a number only; no unit should be typed.

These recorded examples may help you get a feel for the data.
Requested read-out: abundance fitness. Entry: `P45V`
-0.919

Also, `Q31K` please.
0.035

What do you have for `T34N` ?
-0.791

More entries:
I am curious: what abundance fitness value has been reported for `V46M` ?
-0.361

Try this variant too: `T50P`
-0.916

Queued: `V37I`
-0.089

Thanks! And `T24P` ?
-1.02

Next variant up: `G51Y`
-0.918

Now consider `P39F` .
-0.286

# repeat for `I36A`
-0.555

Continue with `V46Q`
-0.621

Record: `E48D`
-0.534
